Provenance of the data: ChEMBL document CHEMBL1128311

Biological target: Kappa-type opioid receptor (Cavia porcellus, UniProt P41144)
Sequence (P41144 whole entry): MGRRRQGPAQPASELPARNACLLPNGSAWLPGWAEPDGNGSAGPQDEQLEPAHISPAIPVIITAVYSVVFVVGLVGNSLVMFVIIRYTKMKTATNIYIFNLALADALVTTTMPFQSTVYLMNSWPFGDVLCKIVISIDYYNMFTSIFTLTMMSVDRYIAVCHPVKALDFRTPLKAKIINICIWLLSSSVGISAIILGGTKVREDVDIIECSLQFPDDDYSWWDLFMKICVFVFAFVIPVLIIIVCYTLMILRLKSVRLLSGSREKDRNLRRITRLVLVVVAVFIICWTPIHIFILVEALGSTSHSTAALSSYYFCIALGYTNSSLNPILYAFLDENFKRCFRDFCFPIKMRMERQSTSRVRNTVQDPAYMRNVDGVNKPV
Assay: Inhibition of [3H]U-69593 radioligand binding to Guinea pig opioid receptor kappa 1.
Outcome measure: IC50 (nM)
Write it as a number; the unit nM goes unstated.

The reported IC50 of the compound CCCCCN1CCC2(c3cccc(O)c3)CC1Cc1[nH]c3ccccc3c12 (stereo not given) was 993

The reported IC50 of the compound CN1CCC2(c3cccc(O)c3)CC1C[C@@H](NC(=O)c1ccccc1)C2 (stereo not given in full) was 5560

The reported IC50 of the compound CN1CCC2(c3cccc(O)c3)C/C(=N/Nc3ccccc3)CC1C2 (stereo not given) was 241

The reported IC50 of the compound CN1CCC2(c3cccc(O)c3)CC(=O)CC1C2 (single isomer, unassigned; (+)) was 5070

###

The following molecules each carry a recorded IC50 for Mu-type opioid receptor (Rattus norvegicus).
Write it as a number; the unit nM goes unstated.

The reported IC50 of the molecule CN1CCC2(c3cccc(O)c3)CC1C[C@@H](NC(=O)Cc1ccccc1)C2 (some centres undefined) was 119

The reported IC50 of the molecule CN1CCC2(c3cccc(O)c3)CC(=O)CC1C2 (single isomer, unassigned; (-)) was 33.5

The reported IC50 of the molecule CN1CCC2(c3cccc(O)c3)Cc3[nH]c4ccccc4c3C1C2 (centres undefined) was 43.9

The reported IC50 of the molecule CN1CCC2(c3cccc(O)c3)CC1Cc1[nH]c3ccccc3c12 (single isomer, unassigned; (-)) was 14.2

The reported IC50 of the molecule CN1CCC2(c3cccc(O)c3)CC(=O)CC1C2 (single isomer, unassigned; (+)) was 137

The reported IC50 of the molecule CN1CCC2(c3cccc(O)c3)CC(=O)CC1C2 (stereo in doubt; 13) was 21.2

The reported IC50 of the molecule CCCCN1CCC2(c3cccc(O)c3)CC1Cc1[nH]c3ccccc3c12 (centres undefined) was 72.4

The reported IC50 of the molecule Oc1cccc(C23CCN(CC4CC4)C(Cc4[nH]c5ccccc5c42)C3)c1 (centres undefined) was 180

The reported IC50 of the molecule CN1CCC2(c3cccc(O)c3)CC1Cc1[nH]c3c(ccc4ccccc43)c12 (centres undefined) was 208

###

Biological target: Delta-type opioid receptor (Mus musculus, UniProt P32300)
Sequence (P32300 whole entry): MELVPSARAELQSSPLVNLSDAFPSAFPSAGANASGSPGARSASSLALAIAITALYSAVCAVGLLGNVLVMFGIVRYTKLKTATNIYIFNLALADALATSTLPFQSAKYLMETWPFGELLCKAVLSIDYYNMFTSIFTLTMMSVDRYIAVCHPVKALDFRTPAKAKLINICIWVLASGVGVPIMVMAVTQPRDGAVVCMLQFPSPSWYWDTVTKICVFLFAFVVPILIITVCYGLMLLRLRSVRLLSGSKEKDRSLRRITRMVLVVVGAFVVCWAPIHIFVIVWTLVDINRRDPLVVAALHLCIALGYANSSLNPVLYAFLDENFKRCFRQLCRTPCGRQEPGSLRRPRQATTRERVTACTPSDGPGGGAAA
Assay: Opioid activity against delta-receptor of isolated mouse vas deferens(MVD) at 30 uM
Field: IC50. Provide a value for each of the compounds that follow.

The reported IC50 of the compound CN1CCC2(c3cccc(O)c3)CCCC1C2 (single isomer, unassigned; (+)) was 557 nM

The reported IC50 of the compound CN1CCC2(c3cccc(O)c3)CC1Cc1[nH]c3ccccc3c12 (single isomer, unassigned; (-)) was 393 nM

###

Biological target: Opioid receptors; mu & delta (Rattus norvegicus) (UniProt P33533+P33535)
Sequence (P33533 whole entry, looked up): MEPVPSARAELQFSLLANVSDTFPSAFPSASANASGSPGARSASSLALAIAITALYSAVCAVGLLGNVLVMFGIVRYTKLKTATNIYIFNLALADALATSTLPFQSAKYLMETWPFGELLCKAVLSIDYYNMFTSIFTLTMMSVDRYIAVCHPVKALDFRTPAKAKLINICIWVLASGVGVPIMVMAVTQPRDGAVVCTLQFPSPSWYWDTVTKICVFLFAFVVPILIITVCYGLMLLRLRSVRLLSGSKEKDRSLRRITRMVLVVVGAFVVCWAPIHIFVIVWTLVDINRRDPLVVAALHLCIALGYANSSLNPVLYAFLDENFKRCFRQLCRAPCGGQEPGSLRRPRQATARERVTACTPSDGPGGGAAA
Sequence (P33535 whole entry, looked up): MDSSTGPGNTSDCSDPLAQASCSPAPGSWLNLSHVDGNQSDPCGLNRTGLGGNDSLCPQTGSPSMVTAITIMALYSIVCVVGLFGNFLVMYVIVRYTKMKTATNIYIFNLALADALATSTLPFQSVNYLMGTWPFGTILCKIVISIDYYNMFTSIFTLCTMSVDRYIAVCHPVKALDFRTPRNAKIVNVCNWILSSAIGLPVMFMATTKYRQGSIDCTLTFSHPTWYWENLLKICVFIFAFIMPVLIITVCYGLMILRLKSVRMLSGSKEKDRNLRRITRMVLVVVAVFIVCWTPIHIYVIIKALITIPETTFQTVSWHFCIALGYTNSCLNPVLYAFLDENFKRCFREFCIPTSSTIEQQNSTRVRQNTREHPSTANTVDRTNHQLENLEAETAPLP
Assay: Selectivity as the ratio of IC50 value against mu receptor to that of delta receptor.
Type: protein assay
Field: Selectivity. Provide a value for each of the compounds that follow.
Just the number.

The reported Selectivity of the compound CCCN1CCC2(c3cccc(O)c3)CC1Cc1[nH]c3ccccc3c12 (stereo unspecified) was 7.4

The reported Selectivity of the compound CN1CCC2(c3cccc(O)c3)CC1Cc1[nH]c3c(ccc4ccccc43)c12 (stereo unspecified) was 16.5

The reported Selectivity of the compound CN1CCC2(c3cccc(O)c3)CC(=O)CC1C2 (single isomer, unassigned; (+)) was 0.12

The reported Selectivity of the compound CCCCCN1CCC2(c3cccc(O)c3)CC1Cc1[nH]c3ccccc3c12 (stereo unspecified) was 3.41

The reported Selectivity of the compound C=CCN1CCC2(c3cccc(O)c3)CC1Cc1[nH]c3ccccc3c12 (stereo unspecified) was 2.58
